# Test Description: Solubility of sodium deoxycholate-containing formulations (post vortexing, 30 min and overnight at 18° C.)
# Format: physicochemical
# Measurement Conditions: sodium deoxycholate-containing formulation, aqueous with cosolvent or surfactant or cyclodextrin; compound 2 mg/mL; sodium deoxycholate 12.5 mg/mL; overnight incubation at 18° C.; read-out: Solubility of sodium deoxycholate-containing formulations after overnight incubation at 18° C., 12.5 mg/mL
# Method: Tables 5A, 5B, and 5C describe solubility experiments conducted with the indicated compounds under the listed conditions. Vortexing was conducted using a Denville Vortexer 59 (Denville Scientific Inc.), at maximum speed for 30 seconds. As used herein, the term overnight refers to a period lasting at least about 12-24 hours.
Readout: solubility

Molecule: CCN1/C(=C/C=C/c2sc3ccccc3[n+]2CC)Sc2ccccc21 [JAC-B1, 3′,3′-Diethylthiacarbocyanine iodide]
solubility: < 2000 µg/mL

Note: attention shifts to another entry.
The molecule identified as CCN1/C(=C/C=C/c2oc3ccccc3[n+]2CC)Oc2ccccc21 [JAC-R1, 3′,3′-Diethyloxacarbocyanine iodide] registered its solubility at > 2000 µg/mL
